The origin of these recorded values is PubChem BioAssay (NCI).

Below: a set of entries, each annotated with reported growth inhibition.
experiment: NCI Yeast Anticancer Drug Screen. Data for the rad50 strain (AID 155);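 note: 0% = growth of vehicle-only cultures of the same strain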; conditions: S. cerevisiae rad50 strain growth inhibition; at 5.0 µM (retest, dose inferred, filed as 0.5); active compounds read high
This is part of a sample that, as a whole, favours compounds with a hit. Of some 79,000 tested, about 15% had one in any assay.
// note: answer is a bare numeric in %

The following compounds have reported results that may help.
Fc1ccccc1-c1ncc(-c2ccccc2)o1	65
Clc1ccc2c(c1)[nH]c1c2nc2ccccn21	21
CCCCC(O)CC (stereo not given)	-6
CC(=O)c1ccc2ccc3ccc(O)cc3c2c1	1
CC(=O)NC1CCC(C2CCCCC2)CC1C1CCCCC1 (stereo not given)	-2
O=C(NNC(=O)c1ccccc1O)c1ccccc1O	4
O=S(c1cc(Br)ccc1O)c1cc(Br)ccc1O	31
O=C1/C(=C\c2ccc([N+](=O)[O-])cc2)Sc2scc(-c3ccc(O)c(O)c3)[n+]21	6
C#CC(C)(C)OC(=O)Nc1ccccc1	5
O=C(O)COc1ccc(OCC(=O)O)cc1	3

Quick one: growth inhibition of Cc1cc(NCCCCCCCNc2cc(C)nc3cc([N+](=O)[O-])ccc23)c2ccc([N+](=O)[O-])cc2n1 ?
1

Field request: growth inhibition | item: COC(=O)[C@]1(C)CCC[C@]2(C)c3ccc(C(C)C)cc3CC[C@@H]12
0

Look up growth inhibition: Cc1cc(O)c(C(C)C)cc1Cl
5

What does the record list as growth inhibition for CC(C)Oc1ccc(Nc2ccccc2)cc1 ?
-2

May I ask what growth inhibition has been recorded for C=CCNC(=O)c1ccccc1SC(C)=O ?
14

Need growth inhibition, item CN1CCCc2cc(/C=C\c3ccnc4ccccc34)ccc21
-2

Given the entry O=C1C(CN(Cc2ccccc2)Cc2ccccc2)CCCC1CN(Cc1ccccc1)Cc1ccccc1 (stereo not given) , report its measured growth inhibition.
4

For the compound COc1c(O)cc2oc3cc(O)c(CC=C(C)C)c(O)c3c(=O)c2c1CC=C(C)C , what growth inhibition is on record?
98

Return reported growth inhibition; argument: O[Si](c1ccccc1)(c1ccccc1)c1ccccc1.O[Si](c1ccccc1)(c1ccccc1)c1ccccc1.O[Si](c1ccccc1)(c1ccccc1)c1ccccc1.[O]=[V]
58

Given CN(C)CCCN=c1c2ccccc2n(O)c2cccc([N+](=O)[O-])c12 , state its recorded growth inhibition.
6

What measured growth inhibition goes with CC(C)C1=CC23CCC4C(C)(C(=O)O)CCCC4(C)C2CC1C1C(=O)OC(=O)C13 (stereo not given) ?
93

Need growth inhibition of CC[C@@]1(OC(=O)C(N)CCCCN)C(=O)OCc2c1cc1n(c2=O)Cc2cc3ccccc3nc2-1 (stereo not given in full) , thanks.
92

// query growth inhibition value for entry O=C1C=CC(=O)c2c1ccc1c3ccccc3n(Cc3ccccc3)c21
27

Sample N#CC1Sc2ccccc2N1C(=O)OCc1ccccc1 (stereo not given) — what was its growth inhibition?
7

Bench note: what growth inhibition did N#CCCC(CCC#N)(CCC#N)C(=O)c1ccccc1 show?
10

Which growth inhibition value is on record for CCOC(=O)c1c[nH]c2cc(C(F)(F)F)ccc2c1=O ?
52

Can you share its growth inhibition? I mean this compound: CC[N+](CC)=c1ccc2nc3c(cc(N)c4ccccc43)oc-2c1
-8

Would you kindly share the measured growth inhibition for Cc1c(-c2ccccc2)ccnc1/C=N/NC(N)=S ?
29

Given the compound O=C1C(CN2CCOCC2)CCCC1CN1CCOCC1 (stereo not given) , what is its reported growth inhibition?
0

State the recorded growth inhibition for this entry: Cc1cc([N+](=O)[O-])c(C)c2c1[nH]c1ccc(O)cc12
52

###

experiment: NCI Yeast Anticancer Drug Screen. Data for the mec2-1 strain (AID 157); conditions: S. cerevisiae mec2-1 strain, at 50.0 µM (retest, dose inferred, filed as 5.0), active compounds read high
Compounds without any hit were thinned out: in the full panel of roughly 79,000, 15% have a hit.
Label false (0) if growth inhibition falls below 10%; label true (1) in every other case.

Answered cases to consult:
CN(C)CCNc1ccc(CO)c2oc3ccc(O)cc3c(=O)c12	true (1)
Nc1ncnc(N)c1N=O	false (0)
NNC(=O)c1ccc(NC(=O)CSc2nc3ccccc3s2)cc1	true (1)

I'd appreciate it if you could say whether CSc1ncnc2c1ncn2C1OC(CO)C(O)C1O (centres undefined) has growth inhibition at least equal to 10%.
false (0)

Could you verify whether the entry COc1cccc2c1C(=O)c1c(O)c3c(c(O)c1C2=O)C[C@@](O)(C(C)=O)C[C@@H]3OC1CC(N)C(O)C(C)O1 (some centres undefined) shows growth inhibition of no less than 10%?
true (1)

Please tell me: is the compound O=C(Nc1ccc(Cl)cc1)c1ccccc1O at or over 10% in terms of growth inhibition?
true (1)

Evaluate O=C(C(c1ccccc1)c1ccccc1)C(c1ccccc1)c1ccccc1 : growth inhibition at minimum 10%?
false (0)

Does the reported growth inhibition for c1ccc(C(c2ccccc2)n2ccnc2)cc1 fall at or above the 10% mark?
true (1)

Please tell me: is the compound CC(CCc1nc2ccccc2s1)(c1ccc(O)cc1)c1ccc(O)cc1 at or over 10% in terms of growth inhibition?
true (1)

###

assay: NCI Yeast Anticancer Drug Screen. Data for the sgs1 mgt1 strain (AID 161);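 note: 0% = growth of cultures given vehicle only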; settings: S. cerevisiae sgs1 mgt1 strain, at 50.0 µM (retest, dose inferred, filed as 5.0)
This is part of a sample that, as a whole, favours compounds with a hit. Of some 79,000 tested, about 15% had one in any assay. The source made the active and inactive calls. Cut-off read from the data, not from the text of the source: active = growth inhibition above about 70%; inactive = the rest.
The reply should name one outcome from active, inactive

NC(CC(=O)O)C(=O)O (configuration not stated)	inactive
Clc1ccc(CNCCCNCc2ccc(Cl)cc2)cc1	inactive
CC1=CC(=Nc2ccc(N(C)C)cc2)C=CC1=O	inactive
O=Nc1ccc(C=C2C(=O)C=CC2=O)cc1	active
O=C1c2cc3c(cc2CC12Cc1ccccc1C2)CCC3	inactive

GET /call?item= Cc1ccc(S(=O)(=O)Nc2cc(S(=O)(=O)O)c(N)c3c2C(=O)c2ccccc2C3=O)cc1 returns the recorded outcome of this test.
inactive

Would you mind telling me which call this test gave CC(=O)OC1OC(=O)C(C)(C(C)=O)C1C (configuration not stated) ?
active

Test call, this compound: CN(C)c1ccc(/C=C/c2ccc3ccccc3[n+]2C)cc1
active

Give the logged outcome of this assay for the following compound: NC(CCCCNC(=O)c1ccccc1)C(=O)O (configuration not stated)
inactive

I'd appreciate the recorded outcome for OC(c1nc2ccccc2[nH]1)C(O)C(O)C(O)c1nc2ccccc2[nH]1 (configuration not stated) from this test.
inactive

Hi, do you know how CCOC(=O)C(C(=O)c1ccccc1)C(=O)c1ccccc1 came out in this test?
active

Each compound tested received a call. Report the one for CN1CCCc2cc(/C=C\c3ccnc4ccccc34)ccc21 .
active

# lookup: test call for Nc1nc(-c2ccccn2)cc2ccccc12
active

Hey, what did the test say about C/C(=N\O)c1cc(Br)cc([N+](=O)[O-])c1O ?
inactive

GET /call?item= NS(=O)(=O)c1ccc(Nc2c3ccccc3nc3c(C(=O)N4CCN(CCO)CC4)cccc23)cc1 returns the recorded outcome of this test.
inactive

// return assay outcome for Cc1cc([N+](=O)[O-])c(C)c2c1[nH]c1ccc(O)cc12
active

State the result this test recorded for O=C(CC1(O)C(=O)Nc2ccccc21)c1ccc(Cl)c(Cl)c1 (configuration not stated) .
inactive

What outcome does the record of this test show for COc1ccc2cc(C(C)=O)c3ccccc3c2c1 ?
active

###

Overview of recorded growth inhibition for various compounds
assay: NCI Yeast Anticancer Drug Screen. Data for the bub3 strain (AID 167); conditions: S. cerevisiae bub3 mutant strain, at 5.0 µM (retest, dose inferred, filed as 0.5), active compounds read high
The panel holds about 79,000 compounds, 15% with a hit somewhere; the sample as a whole holds those more often.
# output: bare number, implied unit %

ON=C(Cc1ccccc1)Cc1ccccc1	-83
CCCCCCCCCCCCCC1=NCC(c2ccc3ccccc3c2)O1 (stereo not given)	1
Cc1ccc(OC(=O)c2ccc(N)cc2O)cc1	24
COC(=O)c1ccc(O)c(OC)c1	12
CC1OC(OC2CC(O)(C(=O)CO)Cc3c(O)c4c(c(O)c32)C(=O)c2ccccc2C4=O)CC(N)C1O (stereo not given)	56
Fc1ccc(/C=C2\COCC3=C2NC(=S)NC3c2ccc(F)cc2)cc1 (stereo not given)	77
Cc1ccc(CC(=O)c2c(C)[nH]c3ccccc23)cc1C	0
Nc1nc(=S)c2ncn(C3OC(CO)C(O)C3O)c2[nH]1 (stereo not given)	99
Nc1nnc(/C=C/c2ccccc2)o1	1
COc1ccc2c(c1)C(Cc1ccc(Oc3ccc(CC4c5cc(OC)ccc5CC[N+]4(C)C)cc3)cc1)[N+](C)(C)CC2 (stereo not given)	-3

Can you look up the measured growth inhibition of O=Nc1ccc(C=C2C(=O)C=CC2=O)cc1 for me?
84

###

assay: NCI Yeast Anticancer Drug Screen. Data for the mlh1 rad18 strain (AID 175); settings: S. cerevisiae mlh1 rad18 strain growth inhibition; at 50.0 µM
This is part of a sample that, as a whole, favours compounds with a hit. Of some 79,000 tested, about 15% had one in any assay. Activity calls are given as the source filed them. Rule as the data show it: active = growth inhibition above about 70%; inactive = the rest.
Allowed answers: class 1 for active, class 0 for inactive

Examples with answers:
CCCCCCCCCCCCN1C(=O)[N+](C)(C)N=C1[O-]	class 1
O=S(c1cc(Cl)cc(Cl)c1O)c1cc(Cl)cc(Cl)c1O	class 1
O=C(CC1(O)C(=O)Nc2ccccc21)c1ccc(Cl)c(Cl)c1 (centres undefined)	class 1
CCC1CCCC(=O)C1 (centres undefined)	class 1
CCCCCCCCCC(=O)c1ccc(O)c(O)c1O	class 1
CCCCCCCCCCCCCCCC[N+](C)(C)Cc1cnc[nH]1	class 1
CCCN(CCC)C(=S)N/N=C/c1ccccn1	class 1
COC1OC2COC(c3ccccc3)OC2C2OC12 (centres undefined)	class 0

// return assay outcome for Nc1nnc(/C=C/c2ccccc2)o1
class 0

What classification did Cc1ccc(C(C)C)c2c1CN(CCN1COc3c(C(C)C)ccc(C)c3C1)CO2 end up with in this test?
class 0

# outcome recorded in this test, key = O=C1OC(c2ccccc2)C(c2ccccc2)=C1c1ccccc1 (centres undefined)
class 0

Assay result, entry O=[N+]([O-])c1cc2c(cc1S(=O)(=O)O)C1C(C3C2C2(Cl)C(Cl)=C(Cl)C3(Cl)C2(Cl)Cl)C2(Cl)C(Cl)=C(Cl)C1(Cl)C2(Cl)Cl (centres undefined) — outcome?
class 0

So what was the verdict on COc1cc2c3c(c1)SCCC(=O)N3CCN2 in this test?
class 0

Lab log entry: NNC(=O)c1ccc(NC(=O)CSc2nc3ccccc3s2)cc1 — outcome as called in the assay?
class 1
